Each entry below lists one item and its recorded pIC50 value.
Molecular target: SNX27 PDZ (human, UniProt Q96L92 43-136)
Test: FP
pIC50: −log10 of the molar value. Non-standard residues stand in square brackets, D forms with d. No end group written: not given here. pS = N[C@@H](COP(=O)(O)O)C(=O)O

{"columns": ["Binder", "pIC50"],
 "data": [
  ["GMVSSTSFNGG [DAXX_(606–616), wild‐type]", 2.89],
  ["NLLLERDTSFTVCPD [CDC25C_(30–44), wild‐type]", 3.68],
  ["NLLLERDT[pS]FTVCPD [CDC25C_(30–44), phosphorylated (pS)]", 3.00],
  ["NLLLERDTEFTVCPD [CDC25C_(30–44), phosphomimetic (E)]", 2.74]
]}

Where do the numbers come from? From paper PMC10333884.
